Molecular target: T1, cytochrome c (Cc), recombinant (human, UniProt P99999 1-105, heme group; 15N-labelled for the 2D NMR titrations)
T1 construct: Met80 is M81 in P99999); Reduced with sodium ascorbate in the NMR experiments; also called hemeprotein; reduced Cc; source: E. coli BL21 (DE3), purified (ionic chromatography, carboxy-methylcellulose)
T1 sequence (P99999 whole entry): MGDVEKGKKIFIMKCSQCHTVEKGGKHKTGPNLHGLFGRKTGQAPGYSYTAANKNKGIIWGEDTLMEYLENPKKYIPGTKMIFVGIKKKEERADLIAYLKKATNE
Experiment: NMR titration; 50 μM reduced 15N-labelled Cc titrated with unlabeled 14-3-3ε FL (700 MHz) or 14-3-3ε_(234-255) peptide (600 MHz); 1D 1H and 2D [1H,15N] HSQC; 25 °C; 5 mM sodium phosphate pH 6.3, 0.1 M sodium ascorbate; CSP curves fitted with a one-site model
Conditions: both partners purified
Measure name: Kd (µM)

INSERT INTO assay_data (binder, measure_name, observed) VALUES
  ('DMQGDGEEQNKEALQDVEDENQ (peptide, UniProt P62258 234-255, looked up, 14-3-3ε, C-terminal tail, residues 234-255; also called non-acetylated peptide; C-terminal tail of 14-3-3ε; source: bought: Genosphere Biotechnologies (France)) [14-3-3ε C-terminal peptide (14-3-3ε_(234-255))]', 'Kd', 49);
